All figures here come from ChEMBL document CHEMBL3638705.

# experimentalTarget: Glycogen synthase kinase-3 beta (Homo sapiens)
# Sequence (P49841 whole entry): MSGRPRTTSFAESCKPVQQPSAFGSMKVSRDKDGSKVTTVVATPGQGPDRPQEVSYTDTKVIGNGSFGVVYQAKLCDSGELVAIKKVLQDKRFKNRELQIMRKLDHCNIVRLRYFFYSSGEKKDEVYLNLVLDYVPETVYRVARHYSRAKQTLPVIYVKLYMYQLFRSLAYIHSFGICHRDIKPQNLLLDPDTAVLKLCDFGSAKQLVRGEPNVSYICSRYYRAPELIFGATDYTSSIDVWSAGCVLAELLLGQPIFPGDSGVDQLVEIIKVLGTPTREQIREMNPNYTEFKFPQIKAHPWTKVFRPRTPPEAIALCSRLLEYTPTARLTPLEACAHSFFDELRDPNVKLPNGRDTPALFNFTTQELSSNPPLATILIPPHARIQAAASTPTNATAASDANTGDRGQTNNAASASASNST
# measurementNotes: Biochemical Assay: The ingredients required for this purpose are mixed in a black 384-well microtiter plate with transparent base (from Greiner, catalog number 781092). The requirements in this connection for each well of the 384-well microtiter plate are 5 nM GSK3β (from Upstate, catalog number xy), 40 μM GSK3β substrate GSM (sequence H-RRRPASVPPSPSLSRHS-(pS)-HQRR, from Upstate, catalog number 2-533), 30 μM nicotinamide adenine dinucleotide NADH (Roche Diagnostics, catalog number 10107735), 50 μM adenosine triphosphate ATP (from Sigma, catalog number A7966) and 2 mM phosphoenolpyruvate (from Roche, catalog number 128112). The required reaction buffer in which the biochemical reaction takes place consists of 50 mM Trizma hydrochloride Tris-HCl pH: 7.5 (from Sigma, catalog number T3253), 5 mM magnesium chloride MgCl2 (from Sigma, catalog number M8266), 0.2 mM DL-dithiothreitol DTT (from Sigma, catalog number D9779), 2 mM ethylenediaminetetraacetic acid EDTA (from Sigma, catalog number E6758), 0.01% Triton X-100 (from Sigma, catalog number T8787) and 0.05% bovine serum albumin BSA (from Sigma, catalog number B4287). Active substances are dissolved in dimethyl sulfoxide DMSO (from Sigma, catalog number D8418) in a concentration of 10 mM. Active substances are added in serial concentrations of 10 μM, 1 μM, 0.1 μM, 0.01 μM, 0.001 μM, 0.0001 μM, 0.00001 μM, 0.000001 μM to the mixtures of the biochemical reaction. As control, dimethyl sulfoxide is added instead of substance in a final concentration of 0.1%. The reaction is incubated at 30° C. for 2 hours and then the resulting fluorescence is measured in a Tecan Safire-XFLUOR4 instrument, version V4.50 (serial number 12901300283) with the specifications: measurement mode−fluorescence measured from below, extinction wavelength 340 nm, emission wavelength 465 nm, slit width extinction 5 nm, slit width emission 5 nm, gain mode 120, delay 0 μs, number of light flashes per measurement 3, and an integration time of 40 μs.
observedProperty: IC50 (µM)
Give bare numbers, in µM.

// returns reported IC50 for input `N#Cc1sc(NCCNc2nc(-c3ccc(Cl)cc3Cl)cn3ccnc23)nc1N`
0.016
